- assay explanation: Human liver microsomal stability of compound in microsomal protein, PBS buffer pH 7.4, NADPH, glucose-6-phosphate and glucose-6-phosphate dehydrogenase media. Aliquotes were taken at 5 time points and after stopping the reaction, supernatants were analyzed using HPLC coupled with a tandem mass spectrometer. The elimination constant, half-life, and intrinsic clearance are determined as results using linear regression analysis. The assay has been performed by Enamine biological services, Bienta Ltd.The protocol is publicly available: dx.doi.org/10.17504/protocols.io.5qpvokdb9l4o/v1; further: time not given here
- Format: ADME, microsomes, Microsome
- condition parameters: microsomes
measured endpoint: Remaining (%)

[
  {
    "compound": "CC(C)[C@H](Nc1ncnc2[nH]c(-c3cnn(C)c3C#N)cc12)c1ccc2c(c1)OCCO2",
    "measured endpoint": "Remaining",
    "result value": 1
  },
  {
    "compound": "CC(C)[C@H](Nc1ncnc2[nH]c(-c3cnn(CC(N)=O)c3)cc12)c1ccc2c(n1)OCCO2",
    "measured endpoint": "Remaining",
    "result value": 85
  },
  {
    "compound": "CC(C)[C@@H](Nc1ncnc2[nH]c(-c3ccc4cncn4c3)cc12)c1ccc2c(c1)S(=O)(=O)CCC2",
    "measured endpoint": "Remaining",
    "result value": 4
  }
]

a: CNC(=O)Cn1cc(-c2cc3c(N[C@@H](c4ccc5c(c4)OCCO5)C(C)C)ncnc3[nH]2)cn1
b: CC(C)[C@H](Nc1ncnc2[nH]ccc12)c1ccc2c(c1)S(=O)(=O)CCC2
Problem: Of a and b , which carries the smaller reported Remaining figure? Mark your selection by writing its label.
Result: a
(a: 14%, b: 37%)
